- assay.system: UniProtKB Q6IN02
- Sequence (Q6IN02 whole entry, looked up): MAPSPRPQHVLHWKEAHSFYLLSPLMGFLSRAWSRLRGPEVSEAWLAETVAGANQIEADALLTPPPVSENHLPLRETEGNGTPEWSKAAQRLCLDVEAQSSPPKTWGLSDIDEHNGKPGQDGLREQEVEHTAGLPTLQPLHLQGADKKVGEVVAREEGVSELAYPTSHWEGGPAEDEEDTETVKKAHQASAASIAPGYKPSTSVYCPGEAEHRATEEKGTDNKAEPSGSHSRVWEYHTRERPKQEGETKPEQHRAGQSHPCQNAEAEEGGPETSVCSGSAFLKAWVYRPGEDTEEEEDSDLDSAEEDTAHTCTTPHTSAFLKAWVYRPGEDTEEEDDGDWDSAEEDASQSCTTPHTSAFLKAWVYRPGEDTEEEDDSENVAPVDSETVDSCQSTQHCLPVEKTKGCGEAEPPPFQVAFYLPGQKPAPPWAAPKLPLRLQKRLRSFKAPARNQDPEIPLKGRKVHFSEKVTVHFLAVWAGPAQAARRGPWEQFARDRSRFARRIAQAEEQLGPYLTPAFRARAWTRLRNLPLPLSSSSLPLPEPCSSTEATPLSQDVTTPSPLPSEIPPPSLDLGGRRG
- protocol.summary: Peg3 promoter luciferase inhibitors, potency, dose response, cell-based, HeLa, CREF/GAPDH counter-screen panel (AID 624167)
- study.conditions: HeLa PEG-Prom luciferase reporter, overnight, CREF/GAPDH counter-screens, mean of runs
Activity calls are given as the source filed them.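 The calls were made as follows: active = mean IC50 for reducing PEG3 promoter reporter signal at or below a set limit, with IC50 above the limit in both counter screens; inactive = the rest, including counter screen hits.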
Could you please pick one outcome from this set? class 1 = active, class 0 = inactive

Previously resolved entries follow.
COc1cc(CNCCCN2CCOCC2)cc(Br)c1OCc1ccc(Cl)cc1 | class 1
CC(=O)OCCNc1cc(SCc2ccco2)c2nonc2c1[N+](=O)[O-] | class 0
CC(C)CC1C(=O)N(Cc2cn(Cc3ccco3)nn2)CCS(=O)(=O)N1Cc1ccc(-c2ccc(F)cc2)cc1 (stereo unspecified) | class 1
COc1ccc2c(c1)C=C([C@@H]1C[C@H]3CN(c4ccccc4)C(=O)[C@]34CCCN14)CO2 | class 0

Lookup: What call does the record list for Cc1ccc2cccc(OCC(=O)Nc3cccc(S(=O)(=O)N4CCCC4)c3)c2n1 ?
Found: class 0

Lookup: Then what about the compound CC(=O)CSc1ccc(-c2nc3cc(C)c(C)cc3[nH]2)cn1 ?
Found: class 1

Lookup: Then what about the compound Cc1ccc(C(=O)Nc2ncc([N+](=O)[O-])s2)cc1 ?
Found: class 1
